B1: INTS4 (parent)
chain: AKQIMEETYKMEFMYSGVENKQVV

Variants of: B1
assay.method.text: protein stability index of a GFP-peptide fusion (GPS, HEK-293T) (PSI 1-6); higher = more stable;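 note: lentivirally expressed fusions sorted by FACS into six bins by GFP to DsRed ratio, PSI derived from sequencing read proportions per bin multiplied by bin number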
condition: c terminus: a fixed tail appended
Please use true whenever protein stability index is not below 2, and false whenever it is.

hey, is protein stability index for this one >= 2? M14D
true

Decide: is the reported value of protein stability index for E6V equal to or greater than 2?
true

Determine whether this variant has protein stability index no lower than 2: M11I
true

Could you verify whether the entry E6C shows protein stability index of no less than 2?
false

Kindly determine if protein stability index recorded for F13L is above or exactly 2.
true

In plain terms: is recorded protein stability index at least 2 for G17T ?
false

Form field: protein stability index at least 2? Entry: T8Y
false

Is it the case that Q3L has protein stability index reaching or exceeding 2?
false

Is it the case that E19A has protein stability index reaching or exceeding 2?
true

Determine whether measured protein stability index meets or exceeds 2 for M14L
true

hey, is protein stability index for this one >= 2? E7K
true

Textbook exercise: given the entry E12V , state whether its protein stability index is greater than or equal to 2.
false

Confirm if protein stability index reported for the variant M5I is 2 or above.
false

State whether the measured protein stability index reaches 2, counting equality as reaching it, for G17P
false

Decide: is the reported value of protein stability index for V18D equal to or greater than 2?
false

Decide: protein stability index of N20P >= 2?
false

Hi, just wondering whether A1L shows protein stability index of 2 or higher.
true

Confirm if protein stability index reported for the variant I4Q is 2 or above.
true

Reported protein stability index at or above 2? K2H
true

API: above_or_equal(metric=protein stability index, cutoff=2) for item Q3D
true

protein stability index >= 2 for K10S ?
false

# check: protein stability index of M5Q is greater than or equal to 2
true

Quick check, protein stability index >= 2? M5K
true

Record T8K ; criterion: protein stability index no lower than 2. Met?
true

Does M5L have a reported protein stability index of at least 2?
true

Is reported protein stability index greater than or equal to 2 here: E7W
true

Given the entry V18I , answer whether its protein stability index meets or surpasses 2.
false

Given Y15Q , state whether its protein stability index is at least 2.
true
